Where do the numbers come from? From patent US11008346B2.

- Subject Of Test: VIM-2 metallo β-lactamase (Pseudomonas aeruginosa)
- Protocol Text: β-lactamase enzyme inhibition, VIM-2
- Recorded Conditions: Nitrocefin 100 μM, 486 nm; 15 min at 37° C. preincubation; read-out: IC50 VIM-2 (Class B)
Measurement Name: IC50

Please review the entries below; each comes with its answer.
Entry O=C(CCC(=O)c1ccccc1)N[C@H]1Cc2cccc(C(=O)O)c2OB1O [Example 42] has what IC50?
100 to 1000 nM

Another compound: C#CCCC(=O)N[C@H]1Cc2cccc(C(=O)O)c2OB1O [Example 37]
1000 to 10000 nM

And the next one, COCCOCC(=O)N[C@H]1Cc2cccc(C(=O)O)c2OB1O [Example 27] ?
100 to 1000 nM

---
Look at this compound and give its reported IC50. NC(=O)NCC(=O)N[C@H]1Cc2cccc(C(=O)O)c2OB1O [Example 36]
100 to 1000 nM

Check NC(=O)CCC(=O)N[C@H]1Cc2cccc(C(=O)O)c2OB1O [Example 16] too.
100 to 1000 nM

Now give it for O=C(CC(F)(F)F)N[C@H]1Cc2cccc(C(=O)O)c2OB1O [Example 4] too.
1000 to 10000 nM

Same question, O=C(CCNS(=O)(=O)C(F)(F)F)N[C@H]1Cc2cccc(C(=O)O)c2OB1O [Example 52] this time
1000 to 10000 nM

Quick one: O=C(CC(C(F)(F)F)C(F)(F)F)N[C@H]1Cc2cccc(C(=O)O)c2OB1O [Example 9]
10000 to 100000 nM

Continue with CNC(=O)CCC(=O)N[C@H]1Cc2cccc(C(=O)O)c2OB1O [Example 19]
1000 to 10000 nM

----------
- Subject Of Test: VIM-2 metallo β-lactamase (Pseudomonas aeruginosa, UniProt Q9K2N0)
- Protocol Text: β-lactamase enzyme inhibition, VIM-2
- Recorded Conditions: Nitrocefin 100 μM, 486 nm; 15 min at 37° C. preincubation; read-out: IC50 VIM-2 (Class B)
pIC50: −log10 of the molar value.
Measurement Name: pIC50

Returns the measured pIC50 for the input molecule. Input: O=C(Cc1ccc2c(c1)CNC2)N[C@H]1Cc2cccc(C(=O)O)c2OB1O [Example 64]
6.00 to 7.00

Further, for O=C(CN1CCCC1=O)N[C@H]1Cc2cccc(C(=O)O)c2OB1O [Example 33] ?
5.00 to 6.00

Item: CS(=O)(=O)NCCCC(=O)N[C@H]1Cc2cccc(C(=O)O)c2OB1O [Example 57]
5.00 to 6.00

NS(=O)(=O)CCCC(=O)N[C@H]1Cc2cccc(C(=O)O)c2OB1O [Example 53] ?
4.00 to 5.00

Try O=C(CCc1nccs1)N[C@H]1Cc2cccc(C(=O)O)c2OB1O [Example 31] next.
5.00 to 6.00

Further cases:
Using the record for CC(=O)CCC(=O)N[C@H]1Cc2ccc(F)c(C(=O)O)c2OB1O [Example 47] , report its pIC50.
> 7.00

Can you check CC(=O)CC(=O)CCC(=O)N[C@H]1Cc2cccc(C(=O)O)c2OB1O [Example 41] next?
> 7.00

How about this molecule: CC(=O)CCCC(=O)N[C@H]1Cc2cccc(C(=O)O)c2OB1O [Example 13]
6.00 to 7.00

Same thing, different molecule: CN(C)S(=O)(=O)CCC(=O)N[C@H]1Cc2cccc(C(=O)O)c2OB1O [Example 55]
5.00 to 6.00
